Huh7-J20 cells data, read-out log10 CC50
Base-10 log of CC50, unit µM.

cpdSmiles	log10 CC50
O=C(Cn1c(=O)ccn(CCCCCOc2cccc(Br)c2)c1=O)Nc1ccc(Oc2ccccc2)cc1	1.65
O=C(Cn1c(=O)ccn(CCCCCOc2ccc(Br)cc2)c1=O)Nc1ccc(Cc2ccccc2)cc1	2.12
Cc1cn(CCCCCOc2ccc(Br)cc2)c(=O)n(CC(=O)Nc2ccc(Oc3ccccc3)cc2)c1=O	1.84

Incoming: Using the record for O=C(Cn1c(=O)ccn(CCCCCOc2ccc(-c3ccccc3)cc2)c1=O)Nc1ccc(Oc2ccccc2)cc1 , report its log10 CC50.
Outgoing: 0.98

Incoming: Given O=C(Cn1c(=O)ccn(CCCCCCCCOc2ccc(Br)cc2)c1=O)Nc1ccc(Oc2ccccc2)cc1 , state its recorded log10 CC50.
Outgoing: 1.35

Incoming: // lookup log10 CC50 for O=C(Cn1c(=O)ccn(CCCCOc2ccc(Br)cc2)c1=O)Nc1ccc(Oc2ccccc2)cc1
Outgoing: 1.79

Incoming: Look at this molecule and give its reported log10 CC50. O=C(Cn1c(=O)ccn(CCCCCCc2ccccc2)c1=O)Nc1ccc(Oc2ccccc2)cc1
Outgoing: 1.17

Incoming: I have this molecule here, O=C(Cn1c(=O)ccn(CCCCCCOc2ccc(Br)cc2)c1=O)Nc1ccc(Oc2ccccc2)cc1 , and I need its recorded log10 CC50.
Outgoing: 1.82

Incoming: Query: log10 CC50; subject: Cc1ccc(Oc2ccc(NC(=O)Cn3c(=O)ccn(CCCCCOc4ccc(Br)cc4)c3=O)cc2)cc1
Outgoing: 1.44

Incoming: Record request: log10 CC50 value, item O=C(Cn1c(=O)ccn(CCCCCOc2ccccc2)c1=O)Nc1ccc(Oc2ccccc2)cc1
Outgoing: 1.11
